# Test system: 621-103 (TSC2-rescued);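 note: immortalized renal angiomyolipoma cells stably carrying empty vector or TSC2, dosed in 384-well plates in DMEM, viability normalized to vehicle-treated wells within each plate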
# assay_protocol: relative viability vs DMSO; higher = less cytotoxic
# experimental_conditions: 0.0001 µM; serum: 10% FBS; 72 h
measure: relative viability (%)
# unit: % | format: bare number

Use the examples below as a reference point.
{"columns": ["molecule", "experimental_system", "units", "relative viability"],
 "data": [
  ["Cc1cnc(NC(=O)Nc2cc(Br)c(C)cc2OC[C@@H]2CNCCO2)cn1", "621-103 (TSC2-rescued)", "%", 109],
  ["O=C1c2ccccc2C(=O)c2c1ccc(O)c2O [Alizarin]", "621-103 (TSC2-rescued)", "%", 101],
  ["C=CC(=O)Nc1cccc(Oc2nc(Nc3ccc(N4CCN(C)CC4)cc3)ncc2Cl)c1 [WZ3146]", "621-103 (TSC2-rescued)", "%", 103],
  ["Nc1ncn([C@H]2C[C@H](O)[C@@H](CO)O2)c(=O)n1 [Decitabine]", "621-103 (TSC2-rescued)", "%", 112],
  ["O=C(NC[C@H]1CN(c2ccc(N3CCOCC3=O)cc2)C(=O)O1)c1ccc(Cl)s1 [Rivaroxaban (Xarelto)]", "621-103 (TSC2-rescued)", "%", 105]
]}

Lookup: Entry C=CC(=O)Nc1cccc(Oc2nc(Nc3ccc(N4CCN(C)CC4)cc3OC)ncc2Cl)c1 [WZ4002] has what relative viability?
Found: 100

Lookup: Same lookup for CC(=O)O[C@H]1C(=O)[C@@]2(C)[C@H]([C@H](OC(=O)c3ccccc3)[C@]3(O)C[C@H](OC(=O)[C@H](O)[C@@H](NC(=O)c4ccccc4)c4ccccc4)C(C)=C1C3(C)C)[C@]1(OC(C)=O)CO[C@@H]1C[C@@H]2O [Paclitaxel] , please.
Found: 69

Lookup: Same lookup for Cc1ncc([N+](=O)[O-])n1CC(C)O (stereo not drawn) [Secnidazole] , please.
Found: 101

Lookup: Same lookup for CN1CCN(c2c(F)cc3c(=O)c(C(=O)O)cn(CCF)c3c2F)CC1 [Fleroxacin (Quinodis)] , please.
Found: 96.7

Lookup: Same lookup for Clc1ccc(C2(c3ccc(-c4cn[nH]c4)cc3)CCNCC2)cc1 [AT7867] , please.
Found: 89.1

Lookup: Same lookup for CC(=O)NC[C@H]1CN(c2ccc(N3CCOCC3)c(F)c2)C(=O)O1 [Linezolid] , please.
Found: 105

Lookup: Same lookup for "C[C@@H](Oc1cc(-n2cnc3ccc(CN4CCN(C)CC4)cc32)sc1C(N)=O)c1ccccc1C(F)(F)F" , please.
Found: 100

Lookup: Same lookup for Cc1ccc(-n2nc(C(C)(C)C)cc2NC(=O)Nc2ccc(OCCN3CCOCC3)c3ccccc23)cc1 [BIRB 796] , please.
Found: 98

Lookup: Same lookup for Oc1cccc(-c2nc(N3CCOCC3)c3oc4ncccc4c3n2)c1 [PI-103] , please.
Found: 112

Lookup: Same lookup for "COc1cc(Nc2ncc(F)c(Nc3ccc4c(n3)N(COP(=O)(O)O)C(=O)C(C)(C)O4)n2)cc(OC)c1OC" , please.
Found: 103

Lookup: Same lookup for CCCCCOC(=O)Nc1nc(=O)n([C@@H]2O[C@H](C)[C@@H](O)[C@H]2O)cc1F [Capecitabine (Xeloda)] , please.
Found: 103

Lookup: Same lookup for CCCCCCOC(=O)NC(=N)c1ccc(NCc2nc3cc(C(=O)N(CCC(=O)OCC)c4ccccn4)ccc3n2C)cc1 [BIBR-1048] , please.
Found: 82.2

Lookup: Same lookup for Nc1ccn([C@H]2CC[C@@H](CO)O2)c(=O)n1 [Zalcitabine] , please.
Found: 90.4

Lookup: Same lookup for Cc1ccccc1-n1c(Cn2ncc3c(N)ncnc32)nc2cccc(C)c2c1=O [PIK-293] , please.
Found: 99.6

These entries and their values trace back to the supplement of paper PMC8960247.
